Each recorded value in this set is attributed to patent US11753407B2.

Metric Name: melting point

I would be grateful if you could share the reported melting point for CCCc1nc(C)cn2nc(-c3cc(=O)n4cc(C5CCNCC5)ccc4n3)cc12 . 228 to 230 °C

I would be grateful if you could share the reported melting point for Cc1cc(C2CCN(C)CC2)cn2c(=O)cc(-c3ccc4c(cnn4C)c3)nc12 . 255 to 263 °C

I would be grateful if you could share the reported melting point for O=c1cc(-c2cncc(F)c2)nc2ccc(N3CCNCC3)cn12 . 201 to 208 °C

I would be grateful if you could share the reported melting point for Cc1ccc(-c2cc(=O)n3cc(N4CCN[C@@H](C)C4)ccc3n2)cc1C . 207 to 209 °C

I would be grateful if you could share the reported melting point for COc1ccc(-c2cc(=O)n3cc(N4CC5CCC(C4)N5)ccc3n2)cc1OC . 158 to 161 °C

I would be grateful if you could share the reported melting point for C[C@H]1CN(c2ccc3nc(-c4cncc(Cl)c4)cc(=O)n3c2)CCN1 . 227 to 232 °C

I would be grateful if you could share the reported melting point for CCc1cc(-c2cc(=O)n3cc(N4CCN(C5CCC5)[C@H](C)C4)ccc3n2)cn2cc(C)nc12 . 209 to 212 °C

I would be grateful if you could share the reported melting point for Cc1nc2cc(-c3cc(=O)n4cc(N5C[C@@H](C)N[C@@H](C)C5)ccc4n3)ccc2s1 . 208 to 212 °C

More entries:
I would be grateful if you could share the reported melting point for Cc1nc2ccc(-c3cc(=O)n4nc(C5CCN(CCO)CC5)ccc4n3)cc2o1 . 205 to 207 °C

I would be grateful if you could share the reported melting point for Cc1cn2nc(-c3cc(=O)n4cc(N5CCN(C)CC5)ccc4n3)cc2cn1 . 230 to 240 °C

I would be grateful if you could share the reported melting point for CCN(C)C1CC=C(c2ccc3nc(-c4ccc(OC)c(OC)c4)cc(=O)n3c2)CC1 (centres unmarked) . 132 to 134 °C
